- Test system: 16R5-2
- measurement notes: Cell growth inhibition assay (Cell Titer Glo) and combination data analysis
- Assay type: cell-based
- condition parameters: Homo sapiens, A375P-F11, 72 h, Melanoma, resistant clone of A375 PF11, BRAF_V600E, 3 days, read-out: IC50 Single Agent Compound B
pIC50: −log10 of the molar value.
property measured: pIC50

Quote pIC50 with test system 16R5-2 for "CC(C)(C)c1nc(-c2cccc(NS(=O)(=O)c3c(F)cccc3F)c2F)c(-c2ccnc(N)n2)s1"
< 5.00

---

- Tested on: NCI-H508
- measurement notes: Cell growth inhibition assay (Cell Titer Glo) and combination data analysis
- Format: cell-based
- condition parameters: Homo sapiens, 72 h, Colon, BRAF_G596R, 3 days, read-out: IC50 Single Agent Compound B
property measured: IC50

Give the value of IC50 reported for the following: CC(C)(C)c1nc(-c2cccc(NS(=O)(=O)c3c(F)cccc3F)c2F)c(-c2ccnc(N)n2)s1 [Compound B]
> 10 µM
